assay: Chemical stability of compound in SIF at pH 6.8 assessed as parent compound remaining after 8 hrs by HPLC method; format: physicochemical; details: read-out: Stability
Reported Metric: remaining at 8 h (%)
Just the number please, in %, no unit attached.

[in] Any idea what remaining at 8 h was measured for CN1CC[C@H](c2c(O)cc(O)c3c(=O)cc(/C=C/c4c(Cl)cccc4Cl)oc23)[C@H](O)C1 ?
[out] 100

----------
test: Half life in rat hepatocytes at 3 uM after 180 mins by LC-MS/MS analysis; type: ADME, cell-based, Hepatocyte
Reported Metric: half-life at 3 µM (min)
Just the number please, in min, no unit attached.

[in] Any idea what half-life at 3 µM was measured for CN1CC[C@H](c2c(O)cc(O)c3c(=O)cc(/C=C/c4c(Cl)cccc4Cl)oc23)[C@H](O)C1 ?
[out] 376

----------
target: Cyclin-dependent kinase 7/ cyclin H (Homo sapiens); assay: Inhibition of CDK7/cyclin H (unknown origin) after 30 mins in presence of [33P]-gamma-ATP by filter binding assay
Sequence (P51946 whole entry): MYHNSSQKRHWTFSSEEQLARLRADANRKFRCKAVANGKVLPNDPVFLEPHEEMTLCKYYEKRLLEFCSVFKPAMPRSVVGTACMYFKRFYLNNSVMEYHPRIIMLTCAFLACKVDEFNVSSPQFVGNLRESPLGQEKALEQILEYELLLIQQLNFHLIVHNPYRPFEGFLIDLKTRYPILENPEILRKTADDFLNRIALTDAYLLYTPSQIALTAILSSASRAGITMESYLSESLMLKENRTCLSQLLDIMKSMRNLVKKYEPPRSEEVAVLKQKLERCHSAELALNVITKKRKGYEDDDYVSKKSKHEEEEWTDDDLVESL
Sequence (P50613 whole entry): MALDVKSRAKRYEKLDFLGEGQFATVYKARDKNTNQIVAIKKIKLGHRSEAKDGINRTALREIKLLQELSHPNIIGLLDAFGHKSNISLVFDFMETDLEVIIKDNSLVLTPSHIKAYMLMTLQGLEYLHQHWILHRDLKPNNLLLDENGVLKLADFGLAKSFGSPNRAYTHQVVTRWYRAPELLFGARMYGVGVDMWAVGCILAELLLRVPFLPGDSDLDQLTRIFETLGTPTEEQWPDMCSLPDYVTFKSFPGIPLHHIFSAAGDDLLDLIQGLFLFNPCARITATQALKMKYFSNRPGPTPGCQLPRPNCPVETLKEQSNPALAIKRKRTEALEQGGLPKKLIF
Reported Metric: pIC50
Units for pIC50: none; it is -log10 of a concentration expressed in mol/L.

[in] Any idea what pIC50 was measured for CN1CC[C@H](c2c(O)cc(O)c3c(=O)cc(/C=C/c4c(Cl)cccc4Cl)oc23)[C@H](O)C1 ?
[out] 6.15

----------
test: n-octanol-PBS distribution co-efficient, log D of compound at pH 7.4 by shake flask method; assay type: physicochemical
Reported Metric: logD

[in] Any idea what logD was measured for CN1CC[C@H](c2c(O)cc(O)c3c(=O)cc(/C=C/c4c(Cl)cccc4Cl)oc23)[C@H](O)C1 ?
[out] 1.65

----------
biological target: CDK9/cyclin T1 (Homo sapiens) (UniProt O60563+P50750); assay: Inhibition of CDK9/cyclin T1 (unknown origin) at 0.5 uM using YSPTSPSYSPTSPSYSPTSPKKK as substrate after 30 mins in presence of [33P]-gamma-ATP by filter binding assay relative to control; assay type: protein-complex assay
Reported Metric: inhibition (%)
Just the number please, in %, no unit attached.

[in] inhibition of Cc1cc(=O)c2c(O)c(CN3CCC(c4ccccc4)CC3)c(O)c([C@H]3CCN(C)C[C@H]3O)c2o1 on CDK9/cyclin T1 (Homo sapiens) (UniProt O60563+P50750)?
[out] 6

[in] What would you report for Cc1cc(=O)c2c(O)c(CN3CC(O)CC3C(=O)O)c(O)c([C@H]3CCN(C)C[C@H]3O)c2o1 (some centres undefined) ?
[out] 8

[in] What would you report for Cc1cc(=O)c2c(O)cc(OC/C=C/c3ccccc3)c([C@H]3CCN(C)C[C@H]3O)c2o1 ?
[out] 8

[in] What would you report for CN1CC[C@H](c2c(O)cc(O)c3c(=O)cc(/C=C/c4ccc(Cl)cc4)oc23)[C@H](O)C1 ?
[out] 71

[in] What would you report for Cc1cc(=O)c2c(O)c(CN3CCN(C)CC3)c(O)c([C@H]3CCN(C)C[C@H]3O)c2o1 ?
[out] 2

[in] What would you report for Cc1cc(=O)c2c(O)cc(OCc3ccc(Br)cc3)c([C@H]3CCN(C)C[C@H]3O)c2o1 ?
[out] 0

[in] What would you report for Cc1oc2c([C@H]3CCN(C)C[C@H]3O)c(O)cc(O)c2c(=O)c1C(O)c1ccc([N+](=O)[O-])cc1 (some centres undefined) ?
[out] 8

[in] What would you report for Cc1cc(=O)c2c(O)c(CN(C)CC(=O)O)c(O)c([C@H]3CCN(C)C[C@H]3O)c2o1 ?
[out] 0

[in] What would you report for Cc1cc(=O)c2c(O)c(CN3CCCC3C(=O)O)c(O)c([C@H]3CCN(C)C[C@H]3O)c2o1 (some centres undefined) ?
[out] 0

[in] What would you report for Cc1cc(=O)c2c(O)c(CN3CCN(C(=O)OC(C)(C)C)CC3)c(O)c([C@H]3CCN(C)C[C@H]3O)c2o1 ?
[out] 0

[in] What would you report for Cc1cc(=O)c2c(O)c(CN3CCC(N4CCCCC4)CC3)c(O)c([C@H]3CCN(C)C[C@H]3O)c2o1 ?
[out] 5

[in] What would you report for CN1CC[C@H](c2c(O)cc(O)c3c(=O)cc(/C=C/c4ccccc4Cl)oc23)[C@H](O)C1 ?
[out] 75

[in] What would you report for Cc1cc(=O)c2c(O)cc(O)c([C@H]3CCN(C)C[C@H]3OC(=O)c3ccco3)c2o1 ?
[out] 0

[in] What would you report for CCN(CC)Cc1c(O)c([C@H]2CCN(C)C[C@H]2O)c2oc(C)cc(=O)c2c1O ?
[out] 4

[in] What would you report for Cc1cc(=O)c2c(O)cc(OCc3ccccc3Br)c([C@H]3CCN(C)C[C@H]3O)c2o1 ?
[out] 0

[in] What would you report for Cc1oc2c([C@H]3CCN(C)C[C@H]3O)c(O)cc(O)c2c(=O)c1C(O)c1cccc(Cl)c1 (some centres undefined) ?
[out] 4

[in] What would you report for Cc1oc2c([C@H]3CCN(C)C[C@H]3O)c(O)cc(O)c2c(=O)c1C(O)c1c(F)cccc1Cl (some centres undefined) ?
[out] 0

[in] What would you report for CN1CC[C@H](c2c(O)cc(O)c3c(=O)cc(/C=C/c4c(Cl)cccc4Cl)oc23)[C@H](O)C1 ?
[out] 94

[in] What would you report for CN1CC[C@H](c2c(O)cc(O)c3c(=O)cc(/C=C/c4ccccc4F)oc23)[C@H](O)C1 ?
[out] 60

[in] What would you report for Cc1cc(=O)c2c(O)c(CN3CCC(Cc4ccccc4)CC3)c(O)c([C@H]3CCN(C)C[C@H]3O)c2o1 ?
[out] 0

[in] What would you report for Cc1cc(=O)c2c(O)c(CN3CCCC3CO)c(O)c([C@H]3CCN(C)C[C@H]3O)c2o1 (some centres undefined) ?
[out] 5

[in] What would you report for Cc1oc2c([C@H]3CCN(C)C[C@H]3O)c(O)cc(O)c2c(=O)c1C(O)c1ccc(F)cc1 (some centres undefined) ?
[out] 13

[in] What would you report for Cc1oc2c([C@H]3CCN(C)C[C@H]3O)c(O)cc(O)c2c(=O)c1C(O)c1ccc(F)c(Br)c1 (some centres undefined) ?
[out] 2

[in] What would you report for Cc1oc2c([C@H]3CCN(C)C[C@H]3O)c(O)cc(O)c2c(=O)c1C(O)c1csc([N+](=O)[O-])c1 (some centres undefined) ?
[out] 0

[in] What would you report for CCCCCCCCCC/C=C/c1c(C)oc2c([C@H]3CCN(C)C[C@H]3O)c(O)cc(O)c2c1=O ?
[out] 11

[in] What would you report for CCOC(=O)N1CCN(Cc2c(O)c([C@H]3CCN(C)C[C@H]3O)c3oc(C)cc(=O)c3c2O)CC1 ?
[out] 0

[in] What would you report for Cc1oc2c([C@H]3CCN(C)C[C@H]3O)c(O)cc(O)c2c(=O)c1C(O)c1cc(F)cc(F)c1 (some centres undefined) ?
[out] 10

[in] What would you report for Cc1cc(=O)c2c(O)cc(OCc3ccc([N+](=O)[O-])cc3)c([C@H]3CCN(C)C[C@H]3O)c2o1 ?
[out] 5

[in] What would you report for CN1CC[C@H](c2c(O)cc(O)c3c(=O)cc(/C=C/c4c5ccccc5cc5ccccc45)oc23)[C@H](O)C1 ?
[out] 80

[in] What would you report for Cc1cc(=O)c2c(O)c(CN3CCOCC3)c(O)c([C@H]3CCN(C)C[C@H]3O)c2o1 ?
[out] 0

[in] What would you report for Cc1oc2c([C@H]3CCN(C)C[C@H]3O)c(O)cc(O)c2c(=O)c1C(O)c1ccc(Cl)cc1 (some centres undefined) ?
[out] 0

[in] What would you report for CN1CC[C@H](c2c(O)cc(O)c3c(=O)cc(/C=C/c4c(F)c(F)c(F)c(F)c4F)oc23)[C@H](O)C1 ?
[out] 92

[in] What would you report for Cc1oc2c([C@H]3CCN(C)C[C@H]3O)c(O)cc(O)c2c(=O)c1C(O)c1ccccc1Br (some centres undefined) ?
[out] 29

[in] What would you report for Cc1cc(=O)c2c(O)c(CN3CCCC3)c(O)c([C@H]3CCN(C)C[C@H]3O)c2o1 ?
[out] 5

----------
target: CYP3A4 (Homo sapiens); experiment: Inhibition of human CYP3A4 at 2 uM using fluorogenic substrate after 30 mins by fluorometric method relative to control; type: ADME; conditions: probe fluorogenic substrate
Sequence (P08684 whole entry): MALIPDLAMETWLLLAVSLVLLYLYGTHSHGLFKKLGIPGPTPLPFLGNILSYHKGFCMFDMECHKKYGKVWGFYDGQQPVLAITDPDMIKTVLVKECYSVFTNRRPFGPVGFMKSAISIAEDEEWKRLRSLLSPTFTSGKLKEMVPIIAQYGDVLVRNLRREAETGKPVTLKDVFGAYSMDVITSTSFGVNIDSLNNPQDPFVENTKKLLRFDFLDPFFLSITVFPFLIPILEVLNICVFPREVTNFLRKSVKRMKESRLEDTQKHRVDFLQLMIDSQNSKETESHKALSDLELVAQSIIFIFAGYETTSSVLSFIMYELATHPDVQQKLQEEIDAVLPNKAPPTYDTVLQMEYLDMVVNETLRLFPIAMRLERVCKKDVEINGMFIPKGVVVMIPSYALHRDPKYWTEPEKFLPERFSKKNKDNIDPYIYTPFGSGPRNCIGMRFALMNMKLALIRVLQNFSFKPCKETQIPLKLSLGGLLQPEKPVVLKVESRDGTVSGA
Reported Metric: inhibition at 0.5 h, 2 µM (%)
Just the number please, in %, no unit attached.

[in] Any idea what inhibition at 0.5 h, 2 µM was measured for CN1CC[C@H](c2c(O)cc(O)c3c(=O)cc(/C=C/c4c(Cl)cccc4Cl)oc23)[C@H](O)C1 ?
[out] 40

----------
test system: Liver; test: Intrinsic clearance in mouse liver S9 fraction assessed per mg of protein preincubated for 5 mins followed by NADPH addition measured after 30 mins by LC-MS/MS analysis; assay type: ADME, tissue-based; settings: s9, 0.5 h
Reported Metric: CLint (µL/min/mg)
Just the number please, in µL/min/mg, no unit attached.

[in] Any idea what CLint was measured for CN1CC[C@H](c2c(O)cc(O)c3c(=O)cc(/C=C/c4c(Cl)cccc4Cl)oc23)[C@H](O)C1 ?
[out] 16
